Below, each entry is listed alongside its reported pest or weed control at 250 g/ha.
# System: giant foxtail (Setaria faberi)
# assay-name: Test G Pre-Emergence Protocol
# Format: in vivo
# condition-summary: Setaria faberi, pre-emergence, 312 h, 250 g ai/ha, evaluated after 13 days, read-out: Foxtail, Giant damage rating (100=total damage to plant; 0=no damage to plant)
Give just the number in %; leave the unit off.

Worked cases, pest or weed control at 250 g/ha given:
1) CN1C[C@@H](c2ccc(C(F)(F)F)cc2)[C@H](C(=O)Nc2cncc(F)n2)C1=O (racemic) = 80
2) CN1C[C@H](c2ccc(C(F)(F)F)cc2)[C@@H](C(=O)Nc2ccccc2S(C)(=O)=O)C1=O (racemic) = 80
3) Cc1cc([C@H]2CN(C)C(=O)[C@@H]2C(=O)Nc2ccc(F)c(F)c2F)cnn1 (racemic) = 0
4) CN1C[C@@H](c2ccc(C(F)(F)F)cc2)[C@H](C(=O)Nc2ccncc2Cl)C1=O (racemic) = 0
5) Cc1c(F)cccc1NC(=O)[C@@H]1C(=O)N(C)C[C@H]1c1cc(Cl)c(F)c(Cl)c1 (racemic) = 90

# return recorded pest or weed control at 250 g/ha for entry COC(=O)c1cc([C@H]2CN(C)C(=O)[C@@H]2C(=O)Nc2ccccc2F)ccc1Cl (racemic)
90

Return value of pest or weed control at 250 g/ha for input Cc1ncc(NC(=O)[C@@H]2C(=O)N(C)C[C@H]2c2ccc(C(F)(F)F)cc2)s1 (racemic) , no commentary.
0

The measurements presented in this section are drawn from patent US12077503B2.
